- tgt: T1, human CD11a (human, UniProt P20701 26-1170)
- T1 construct: whole, on cells; On Jurkat T-cells or human peripheral blood mononuclear cells, as part of LFA-1; also called CD11a on Jurkat cells; alpha subunit of LFA-1
- procedureSummary: FACScan, Jurkat cells
measure: Var.EC50/HuIgG1 EC50 (ratio)
Use ratio as the unit, but write only the number.

Value of measured Var.EC50/HuIgG1 EC50 for the entry HuIgG1 mutant LysH64Ala (antibody, V domains shown, HuIgG1 mutant, human IgG1; Kabat numbering) VH: EVQLVESGGGLVQPGGSLRLSCAASGYSFTGHWMNWVRQAPGKGLEWVGMIHPSDSETRYNQKFADRFTISVDKSKNTLYLQMNSLRAEDTAVYYCARGIYFYGTTYFDYWGQGTLVTVSS VL: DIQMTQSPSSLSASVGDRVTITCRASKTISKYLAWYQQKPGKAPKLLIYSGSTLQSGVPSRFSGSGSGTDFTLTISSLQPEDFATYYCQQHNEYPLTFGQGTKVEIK : 2.5
